Below, each of the molecules is paired with its reported EC90 value.
Test system: Dengue virus (DV) serotype 2, New Guinea C
Test: microbe, parasite or virus in culture
Format: cell-based
Details: read-out: DV EC90
Expressed in nM, but write only the number.

Solved entries:
>>> value_reported("Cc1ccc(C)c(OCCCCCCN2C[C@H](O)[C@@H](O)[C@H](O)[C@H]2CO)c1")
600
>>> value_reported("CC(=O)O.CC1CCC(OCCCCCCN2C[C@H](O)[C@@H](O)[C@H](O)[C@H]2CO)CC1 (some centres unmarked)")
13000
>>> value_reported("OC[C@@H]1[C@@H](O)[C@H](O)[C@@H](O)CN1CCCCCC1(O)CCCCC1 [OSL95-II, N-pentyl-(1-hydroxycyclohexyl)-DNJ, reference compound]")
8700

Lookup: May I ask what EC90 has been recorded for C[C@@H]1CCCCC1OCCCCCCN1C[C@H](O)[C@@H](O)[C@H](O)[C@H]1CO (some centres unmarked) ?
Found: 600

Lookup: What does the record list as EC90 for CC(C)[C@@H]1CC[C@@H](C)C[C@H]1OCCCCCCN1C[C@H](O)[C@@H](O)[C@H](O)[C@H]1CO ?
Found: 200
